- assayedSystem: MCL-1 (Homo sapiens (Human), UniProt Q07820, K194A/K197A/R201A)
- Sequence (Q07820 whole entry K194A/K197A/R201A, looked up): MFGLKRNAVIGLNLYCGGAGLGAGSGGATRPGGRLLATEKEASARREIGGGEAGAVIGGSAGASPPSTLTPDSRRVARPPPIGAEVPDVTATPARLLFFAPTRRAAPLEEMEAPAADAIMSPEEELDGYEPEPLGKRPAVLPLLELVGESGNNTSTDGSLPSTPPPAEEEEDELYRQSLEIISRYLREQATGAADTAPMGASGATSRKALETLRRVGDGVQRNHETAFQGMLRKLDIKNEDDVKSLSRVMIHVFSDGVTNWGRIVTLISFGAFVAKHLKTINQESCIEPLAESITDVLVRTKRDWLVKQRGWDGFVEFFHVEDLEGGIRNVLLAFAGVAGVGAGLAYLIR
- procedureSummary: Protein-compound interaction assay (SPR assay, Assay 9)
- measurementParameters: KD (geometric mean), SPR, 25° C.
attributeMeasured: pKd
Recall that pKd is obtained by taking minus log10 of the concentration measured in molar.

Worked cases, pKd given:
CCc1c2c(nn1C)C(CCN1CCOCC1)OCCCCn1c(C(=O)O)c(CCCOc3cccc4ccccc34)c3ccc(F)c-2c31 (single isomer, unassigned; enantiomer 2) [Example 12] = 7.66
Cc1c2c(nn1C)C(CCN1CCOCC1)OCCCCn1c(C(=O)O)c(CCCOc3cccc4cc(F)ccc34)c3ccc(Cl)c-2c31 (single isomer, unassigned; enantiomer 1) = 9.11
CCc1c2c(nn1C)C(CCN1CCOCC1)OCCCCn1c(C(=O)O)c(CCCOc3cccc4ccccc34)c3ccc(F)c-2c31 (racemic) [Example 10] = 8.96
CCc1c2c(nn1C)C(CCN1CCOCC1)OCCCCn1c(C(=O)O)c(CCCOc3cccc4ccccc34)c3ccc(F)c-2c31 (single isomer, unassigned; enantiomer 1) [Example 11] = 9.21

Now look at this one.
Record summary for CCc1c2c(nn1C)C(CCC1CCOCC1)OCCCCn1c(C(=O)O)c(CCCOc3cccc4cc(F)ccc34)c3ccc(Cl)c-2c31 (single isomer, unassigned; enantiomer 1) [Example 63] : reported pKd = 8.85
